Reported IC50 values are given for each entry in this list.
# target: human prostaglandin H2 synthase type II (COX-2) (Homo sapiens, UniProt P35354)
# Sequence (P35354 18-604): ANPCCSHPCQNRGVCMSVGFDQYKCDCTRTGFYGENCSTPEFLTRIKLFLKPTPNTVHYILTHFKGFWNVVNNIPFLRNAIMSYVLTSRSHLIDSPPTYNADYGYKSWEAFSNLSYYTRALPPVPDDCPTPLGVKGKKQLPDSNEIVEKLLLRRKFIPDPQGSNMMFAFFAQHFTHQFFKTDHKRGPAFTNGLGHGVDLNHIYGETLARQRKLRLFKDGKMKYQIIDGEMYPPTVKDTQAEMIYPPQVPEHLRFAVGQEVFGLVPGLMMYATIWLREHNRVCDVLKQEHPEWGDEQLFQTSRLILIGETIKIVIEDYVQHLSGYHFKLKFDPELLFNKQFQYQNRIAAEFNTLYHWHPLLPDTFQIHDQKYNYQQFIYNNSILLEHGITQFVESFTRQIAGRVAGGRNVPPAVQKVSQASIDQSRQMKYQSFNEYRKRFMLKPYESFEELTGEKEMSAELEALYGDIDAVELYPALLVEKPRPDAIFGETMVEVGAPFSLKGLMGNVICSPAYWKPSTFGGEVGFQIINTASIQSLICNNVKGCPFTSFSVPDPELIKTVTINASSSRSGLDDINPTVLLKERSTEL
# experiment: Human prostaglandin H2 synthase type II (hCOX-2) homogenate assay (transfected COS-7 cells, PGE2 formation)
# Format: biochemical
# Parameters: expressed in transfected cells; host or cells: COS-7 (African Green Monkey Kidney)
# conditionLabel: COS-7 homogenate; read-out: P4: COX 2 Homogenized Cell IC50

[
  {
    "compound": "CS(=O)(=O)c1ccc(-n2nc3c(c2-c2ccc(Cl)cc2)CCCCC3)cc1",
    "target": "human prostaglandin H2 synthase type II (COX-2) (Homo sapiens, UniProt P35354)",
    "IC50 [µM]": 1.5
  },
  {
    "compound": "COc1ccc(-n2nc3c(c2-c2ccc(F)cc2)CC2(CC3)OCCO2)cc1 [Example 30c]",
    "target": "human prostaglandin H2 synthase type II (COX-2) (Homo sapiens, UniProt P35354)",
    "IC50 [µM]": 20.3
  },
  {
    "compound": "CS(=O)(=O)c1ccc(-n2nc3c(c2-c2ccc(F)cc2)CC2(CC3)OCCO2)cc1 [Example 30b]",
    "target": "human prostaglandin H2 synthase type II (COX-2) (Homo sapiens, UniProt P35354)",
    "IC50 [µM]": 21.7
  },
  {
    "compound": "COc1ccc(-n2nc(-c3ccc(F)cc3)c3c2CCCCC3)cc1",
    "target": "human prostaglandin H2 synthase type II (COX-2) (Homo sapiens, UniProt P35354)",
    "IC50 [µM]": 2.5
  },
  {
    "compound": "COc1ccc(-n2nc3c(c2-c2ccc(F)cc2)CCCCC3)cc1",
    "target": "human prostaglandin H2 synthase type II (COX-2) (Homo sapiens, UniProt P35354)",
    "IC50 [µM]": 8.1
  },
  {
    "compound": "COc1ccc(-n2nc(-c3ccc(Cl)cc3)c3c2CCCCC3)cc1",
    "target": "human prostaglandin H2 synthase type II (COX-2) (Homo sapiens, UniProt P35354)",
    "IC50 [µM]": 0.38
  }
]

###

# target: human prostaglandin H2 synthase type II (COX-2) (Homo sapiens, UniProt P35354)
# experiment: Human prostaglandin H2 synthase type II (COX-2) whole cell assay (ECV-304 cells, PGE2 by radioimmunoassay)
# Format: cell-based
# Parameters: endogenous in cells; host or cells: ECV-304
# conditionLabel: @3 μM (superscript a), read-out: P1: COX 2 Whole Cell % Inhibition

[
  {
    "compound": "CS(=O)(=O)c1ccc(C(=O)C2CC(=O)CCC2=O)cc1 (stereo not drawn) [Example 29f]",
    "inhibition at 3 µM / %": 66
  },
  {
    "compound": "CS(=O)(=O)c1ccc(-n2nc(-c3ccc(F)cc3)c3c2C=CCC3)cc1 [Example 32h]",
    "inhibition at 3 µM / %": 13
  },
  {
    "compound": "Fc1ccc(-n2nc(-c3ccc(Cl)cc3)c3ccc4[nH]c5ccc(F)cc5c4c32)cc1 [Example 32k]",
    "inhibition at 3 µM / %": 29
  },
  {
    "compound": "CS(=O)(=O)c1ccc(-n2nc(-c3ccc(Cl)cc3)c3c2CCCC3)cc1 [Example 30e]",
    "inhibition at 3 µM / %": 21
  },
  {
    "compound": "CS(=O)(=O)c1ccc(-n2nc(-c3ccc(F)cc3)c3ccccc32)cc1 [Example 32i]",
    "inhibition at 3 µM / %": 12
  },
  {
    "compound": "CCOc1ccc2c(-c3ccc(F)cc3)nn(-c3ccc(S(C)(=O)=O)cc3)c2c1 [Example 32j]",
    "inhibition at 3 µM / %": 87
  }
]

The measurements presented in this section are drawn from patent US6083969A.
